Experimental Target: LCK (Homo sapiens (Human), UniProt P06239)
Sequence (P06239 whole entry): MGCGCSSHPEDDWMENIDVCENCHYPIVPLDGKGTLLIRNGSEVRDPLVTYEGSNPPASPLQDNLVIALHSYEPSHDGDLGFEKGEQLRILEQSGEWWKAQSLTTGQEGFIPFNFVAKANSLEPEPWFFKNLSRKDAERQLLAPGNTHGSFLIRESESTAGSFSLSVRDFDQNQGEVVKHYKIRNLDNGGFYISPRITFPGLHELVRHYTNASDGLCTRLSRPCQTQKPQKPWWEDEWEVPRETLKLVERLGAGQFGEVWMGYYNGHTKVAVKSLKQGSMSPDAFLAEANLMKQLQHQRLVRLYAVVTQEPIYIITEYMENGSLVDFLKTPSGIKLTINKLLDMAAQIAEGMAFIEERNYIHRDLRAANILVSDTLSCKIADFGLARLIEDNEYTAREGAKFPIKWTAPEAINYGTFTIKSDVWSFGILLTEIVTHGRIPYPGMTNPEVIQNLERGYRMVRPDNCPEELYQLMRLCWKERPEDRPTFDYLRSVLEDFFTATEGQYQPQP
Measurement Protocol: In vitro assay: kinase binding to immobilized ligand, captured kinase measured by qPCR
Measured Property: IC50

CCc1c(O)cc(F)c(C)c1-n1c(N)c(C(N)=O)c2cnc(C)nc21; < 50 nM
Cc1cc2c(C(N)=O)c(N)n(-c3c(C)cc4c(c3C)OCC4)c2nc1C; 100 to 1000 nM
Cc1ccc(O)c(C)c1-n1c(N)c(C(N)=O)c2cnc(NC(=O)[C@@H]3CCCN3)nc21; 100 to 1000 nM
Cc1ccc(O)c(C)c1-n1c(N)c(C(N)=O)c2cnc(CO)nc21; 100 to 1000 nM
Cc1ccc(O)c(C)c1-n1c(N)c(C(N)=O)c2cnc(CCc3nccs3)c(F)c21; < 50 nM
Cc1cc(F)c(O)c(C)c1-n1c(N)c(C(N)=O)c2cc(Cl)cnc21; < 50 nM
CCc1c(O)cc(F)c(C)c1-n1c(N)c(C(N)=O)c2cnc(C3CC3)c(C#N)c21; < 50 nM
Cc1nc(C)c2c(C(N)=O)c(N)n(-c3c(C)ccc(O)c3C)c2n1; 100 to 1000 nM
Cc1ccc(O)c(C)c1-n1c(N)c(C(N)=O)c2cnc(C#CC(F)(F)F)nc21; < 50 nM
Cc1ccc(O)c(C)c1-n1c(N)c(C(N)=O)c2cnc(C3CC3)c(C#N)c21; < 50 nM

QUERY: What does the record list as IC50 for Cc1cc2c(C(N)=O)c(N)n(-c3c(C)ncc(O)c3C)c2nc1C ?
RESULT: 100 to 1000 nM

QUERY: For the compound shown here, Cc1cnc2c(c1)c(C(N)=O)c(N)n2-c1c(C)ccc(O)c1N , give the reported IC50.
RESULT: < 50 nM

----------
Experimental Target: UniProt:Q99640
Sequence (Q99640 whole entry): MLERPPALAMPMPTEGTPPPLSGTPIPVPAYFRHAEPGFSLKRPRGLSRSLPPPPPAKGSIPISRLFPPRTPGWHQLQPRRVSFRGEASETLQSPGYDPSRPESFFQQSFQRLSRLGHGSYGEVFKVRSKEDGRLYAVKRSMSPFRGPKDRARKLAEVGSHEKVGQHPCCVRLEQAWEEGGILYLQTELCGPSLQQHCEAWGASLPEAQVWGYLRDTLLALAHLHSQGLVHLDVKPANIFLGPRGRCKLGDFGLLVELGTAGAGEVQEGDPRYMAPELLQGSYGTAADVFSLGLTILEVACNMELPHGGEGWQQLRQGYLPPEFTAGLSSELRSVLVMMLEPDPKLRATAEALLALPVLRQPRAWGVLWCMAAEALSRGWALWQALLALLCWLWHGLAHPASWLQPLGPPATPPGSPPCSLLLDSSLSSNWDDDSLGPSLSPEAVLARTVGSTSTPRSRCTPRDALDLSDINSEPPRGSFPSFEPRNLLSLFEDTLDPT
Measurement Protocol: In vitro assay: kinase binding to immobilized ligand, captured kinase measured by qPCR
// IC50 lookup, one value per entry

Take a look at these entries with their results.
Cc1c(O)cc(F)c(C)c1-n1c(N)c(C(N)=O)c2cnc(C3CC3)nc21 (atropisomer, axis not shown); < 50 nM
Cc1ccc(O)c(C)c1-n1c(N)c(C(N)=O)c2cnc(-c3ccc(C(C)(C)C)cc3)nc21; 100 to 1000 nM
Cc1ccc(O)c(C)c1-n1c(N)c(C(N)=O)c2cnc(CO)nc21; 50 to 100 nM
Cc1ncc2c(C(N)=O)c(N)n(-c3c(C)c(O)cc(F)c3C)c2n1 (atropisomer, axis not shown) [Compound 606]; < 50 nM
Cc1ccc(O)c(C)c1-n1c(N)c(C(N)=O)c2cnc(N[C@@H]3CCC[C@H]3O)nc21; < 50 nM
Cc1ncc2c(C(N)=O)c(N)n(-c3c(C)cc(F)c(O)c3C)c2n1; < 50 nM

QUERY: State the recorded IC50 for this entry: Cc1ncc(O)c(C)c1-n1c(N)c(C(N)=O)c2cc(Cl)cnc21
RESULT: < 50 nM

QUERY: Which IC50 is listed for Cc1ccc(O)c(C)c1-n1c(N)c(C(N)=O)c2cnc(C(F)(F)F)nc21 ?
RESULT: < 50 nM

QUERY: Which IC50 value is on record for Cc1ccc(O)c(C)c1-n1c(N)c(C(N)=O)c2cnc(NC(=O)[C@@H]3CCCN3)nc21 ?
RESULT: < 50 nM

QUERY: Could you share which IC50 value was measured for CCc1ncc2c(C(N)=O)c(N)n(-c3c(C)ccc(O)c3C)c2c1F ?
RESULT: < 50 nM

QUERY: Dear colleague, I am looking for the recorded IC50 of the following molecule: Cc1cc2c(c(C)c1-n1c(N)c(C(N)=O)c3cc(Cl)cnc31)OCO2
RESULT: > 1000 nM

QUERY: // IC50 lookup, key: COc1cnc(C)c(-n2c(N)c(C(N)=O)c3cc(Cl)cnc32)c1C
RESULT: > 1000 nM

QUERY: # query: IC50 of entry Cc1cc(F)c(O)c(C)c1-n1c(N)c(C(N)=O)c2cc(Cl)cnc21
RESULT: < 50 nM

QUERY: Can you share its IC50? I mean this molecule: Cc1c(O)cc(F)c(C)c1-n1c(N)c(C(N)=O)c2cnc(C3CC3)c(F)c21
RESULT: < 50 nM
